# Target Or Test System: histamine H2-receptors (Cavia porcellus, UniProt P47747)
# Construct: histamine-induced tachycardia in the isolated guinea pig atrium
# Sequence (P47747 whole entry): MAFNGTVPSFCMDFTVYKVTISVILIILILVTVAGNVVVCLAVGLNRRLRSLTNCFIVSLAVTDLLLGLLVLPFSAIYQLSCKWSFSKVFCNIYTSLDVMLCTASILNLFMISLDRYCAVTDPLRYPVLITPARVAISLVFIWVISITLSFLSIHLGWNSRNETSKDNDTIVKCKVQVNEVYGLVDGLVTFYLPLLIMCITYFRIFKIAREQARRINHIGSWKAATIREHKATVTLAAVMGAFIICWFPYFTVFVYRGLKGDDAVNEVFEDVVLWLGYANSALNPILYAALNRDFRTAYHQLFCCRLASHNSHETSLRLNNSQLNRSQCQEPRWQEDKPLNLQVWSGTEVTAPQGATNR
# Protocol Notes: Inhibition of histamine-induced tachycardia in the isolated guinea pig atrium
# Setup Conditions: read-out: effective dose producing 50% inhibition of the histamine-induced tachycardia
pIC50: −log10 of the molar value.
Quantity Kind: pIC50

[Q] Please report the recorded pIC50 for "N=C(N)Nc1nc(CSCCNc2[nH]ccc2[N+](=O)[O-])cs1" .
[A] > 6.00

Just for reference, patent EP0028117A1 is where these values come from.
